biological target: UniProt P43351; type: functional, biochemical
Sequence (P43351 whole entry): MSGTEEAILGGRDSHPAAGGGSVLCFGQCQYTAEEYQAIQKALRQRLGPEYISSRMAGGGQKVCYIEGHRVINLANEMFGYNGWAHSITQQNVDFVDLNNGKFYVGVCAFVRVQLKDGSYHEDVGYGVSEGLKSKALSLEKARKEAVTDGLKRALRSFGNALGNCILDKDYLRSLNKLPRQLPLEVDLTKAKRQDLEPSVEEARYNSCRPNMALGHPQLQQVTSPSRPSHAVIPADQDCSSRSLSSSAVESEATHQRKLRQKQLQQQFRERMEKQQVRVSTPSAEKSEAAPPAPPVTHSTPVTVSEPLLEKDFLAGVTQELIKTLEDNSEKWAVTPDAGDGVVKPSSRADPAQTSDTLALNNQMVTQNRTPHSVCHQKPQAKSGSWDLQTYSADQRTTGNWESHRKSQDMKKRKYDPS
Active and inactive are the calls of the source.

querySmiles: CN(C)CCCNC(=O)c1ccc(-c2cc(O)c3ncccc3c2)cc1
AC50: 0.849 µM (active)
--
querySmiles: COc1ccc(-c2nc(C(=O)NCCCN3CCOCC3)cc3c2[nH]c2ccccc23)cc1OC
AC50: 4.84 µM (active)
--
querySmiles: CN(C)CCCN=C(S)N(CCN(C)C)Cc1cc2cc3c(cc2nc1O)OCCO3
AC50: 5.91 µM (active)
--
querySmiles: CC(=O)Nc1cc(-c2cccc(C(=O)NCCN(C)C)c2)cn2c(-c3ccc(S(C)(=O)=O)cc3)cnc12
AC50: 2.7 µM (active)
--
querySmiles: CCC[C@@H](CN1CCC[C@H]1CN1C(N)=NC[C@H]1CC(C)C)N1C[C@@H]([C@H](C)CC)N(CCc2ccc(Cl)c(Cl)c2)C1=N
AC50: 12.4 µM (active)

Where these numbers come from: ChEMBL document CHEMBL1201862
